The reader will find reported EC50 values listed item by item below.
- Target Entity: human S1P1 receptor (Homo sapiens)
- Construct: membranes were used
- Sequence (P21453 whole entry): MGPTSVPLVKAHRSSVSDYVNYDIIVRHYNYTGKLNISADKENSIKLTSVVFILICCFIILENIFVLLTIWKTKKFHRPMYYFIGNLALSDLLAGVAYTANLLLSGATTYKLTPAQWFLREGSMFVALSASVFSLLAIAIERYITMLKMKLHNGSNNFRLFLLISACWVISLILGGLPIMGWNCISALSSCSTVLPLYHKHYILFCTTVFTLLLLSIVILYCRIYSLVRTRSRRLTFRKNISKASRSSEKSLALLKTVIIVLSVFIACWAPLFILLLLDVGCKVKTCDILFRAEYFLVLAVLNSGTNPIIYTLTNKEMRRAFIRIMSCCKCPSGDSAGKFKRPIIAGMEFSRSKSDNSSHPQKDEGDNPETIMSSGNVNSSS
- Protocol Text: GTP γ35S binding assay for S1P1 activity
- Test Parameters: activity potency from GTP γ35S binding; membrane protein from cells stably expressing the S1P1 receptor; 30 min at 25° C.
Measured Attribute: EC50 (nM)

compound="Cc1ccc(CC(c2cccc(F)c2)c2nc(-c3ccc(CNCCC(=O)O)cc3)no2)cc1C (centres unmarked) [Compound 3]" test_value=598
compound="Cc1cccc(CC(c2cccc(Cl)c2)c2nc(-c3ccc(CCC(=O)O)cc3C)no2)c1 (centres unmarked) [Compound 8]" test_value=17.1
compound="Cc1ccc(CC(c2cccc(Cl)c2)c2nc(-c3ccc(CCC(=O)O)cc3C)no2)cc1C (centres unmarked) [Compound 6]" test_value=1060
compound="Cc1ccc(CC(c2cccc(Cl)c2)c2nc(-c3ccc(C(=O)NCCC(=O)O)cc3)no2)cc1C (centres unmarked) [Compound 9]" test_value=911
compound="Cc1ccc(CC(c2cc(F)cc(F)c2)c2nc(-c3ccc(CNCCCP(=O)(O)O)cc3)no2)cc1C (centres unmarked) [Compound 11]" test_value=5.27
